Assay: Clinical pharmacological trial: pharmacokinetics after single-dose edoxaban 15 mg in individuals with renal functional impairment
Conditions: human, in vivo, 15 mg, t1/2 Geometric least squares mean, single-dose 15 mg; healthy adult (CLCR > 80 mL/min)
measured property: half-life (h)
Give bare numbers, in h.

QUERY: // half-life lookup, key: "CN1CCc2nc(C(=O)N[C@@H]3C[C@@H](C(=O)N(C)C)CC[C@@H]3NC(=O)C(=O)Nc3ccc(Cl)cn3)sc2C1"
RESULT: 8.6

====

Assay: Clinical pharmacological trial: pharmacokinetics after single-dose edoxaban 15 mg in individuals with renal functional impairment
Conditions: human, in vivo, 15 mg, C24h Geometric mean (plasma edoxaban concentration 24 hours after administration), single-dose 15 mg; severe renal impairment (CLCR < 30 mL/min, nondialyzed)
measured property: concentration at 24 h (ng/mL)
Answers are plain numbers, in ng/mL.

QUERY: // concentration at 24 h lookup, key: "CN1CCc2nc(C(=O)N[C@@H]3C[C@@H](C(=O)N(C)C)CC[C@@H]3NC(=O)C(=O)Nc3ccc(Cl)cn3)sc2C1"
RESULT: 6.88
